Tested on: HCT-15 colon
test_protocol: NCI-60 one-dose screen, 48 h (100 = growth as untreated, 0 = no growth, -100 = all killed)
study_conditions: 10 µM unless noted
The panel holds about 83,000 compounds, 20% with a hit somewhere; the sample as a whole holds those more often.
measurement_type: growth (%)
Unit % implied. Number only.

// worked examples, growth included
>  <compound>
C[C@H](C(=O)Nc1ccc(S(N)(=O)=O)cc1)S(=O)(=O)c1ccccc1

>  <experimental_system>
HCT-15 colon

>  <growth [%]>
98.1

$$$$
>  <compound>
COC(=O)/C=C1\S/C(=N\Nc2ccc([N+](=O)[O-])cc2[N+](=O)[O-])N(C2CCCCC2)C1=O

>  <experimental_system>
HCT-15 colon

>  <growth [%]>
11

$$$$
>  <compound>
Cc1ccc(C(=O)NN2C(=O)CSC2c2cccc([N+](=O)[O-])c2)cn1 (stereo not given)

>  <experimental_system>
HCT-15 colon

>  <growth [%]>
109

$$$$
>  <compound>
COc1ccc(C(=O)C[C@]2(O)C(=O)Nc3c(Cl)ccc(Cl)c32)cc1

>  <experimental_system>
HCT-15 colon

>  <growth [%]>
22.6

$$$$

Continue with the next compound.
Lookup: State the recorded growth for this entry: O=C(N/N=C/[C@H](O)[C@H](O)[C@H](O)CO)c1ccc(NC(=O)c2cccnc2)cc1
Found: 106

###

Listing of recorded growth by entry.
Tested on: HCT-15 colon
test_protocol: NCI-60 one-dose screen, 48 h (100 = growth as untreated, 0 = no growth, -100 = all killed)
study_conditions: 10 µM unless noted
Compounds without any hit were thinned out: in the full panel of roughly 83,000, 20% have a hit.
Form entry: value (%) — number only.

Use these answered entries as a reference point.
>  <smiles_repr>
Cn1cc(-c2cc3ncnc(Nc4ccc(CC(=O)Nc5cc(C(C)(C)C)on5)cc4)c3s2)cn1

>  <value_measured>
18.6

$$$$
>  <smiles_repr>
Clc1ccc(C(/C=C/c2sc(Cl)nc2Cl)=N/Nc2cc(Cl)cc(Cl)c2)cc1

>  <value_measured>
105

$$$$
>  <smiles_repr>
CCOC(=O)Nc1ccc(-c2nc(-c3cccc(OCCN4CCOCC4)c3)c(-c3ccnc(Br)c3)[nH]2)cc1

>  <value_measured>
11

$$$$
>  <smiles_repr>
COC(=O)[C@H](C)NC(=O)NC(=O)NC(=O)CI

>  <value_measured>
51.4

$$$$

Okay, now this compound:
Lookup: Give its growth value. Item: COc1ccc(CN2c3ccccc3Sc3ccccc32)c(F)c1
Found: 35.4

###

Tested on: SNB-75 CNS
test_protocol: NCI-60 one-dose screen, 48 h
study_conditions: 10 µM unless noted
This is part of a sample that, as a whole, favours compounds with a hit. Of some 83,000 tested, about 20% had one in any assay. Calls of active or inactive are those of the source. Rule for the calls: active = growth percent below 10; inactive = the rest.
Tick one outcome: true (1) for active, false (0) for inactive

Lookup: GET /call?item= CN(C)CCN1CCN(c2ncccc2C2Nc3ccccc3-n3cccc32)CC1 (configuration not stated) returns the recorded outcome of this test.
Found: false (0)

Lookup: Could you check what this test reported for CCC(=O)Nc1ccc(-c2nc(-c3cccc(OC)c3)c(-c3ccnc(Br)c3)[nH]2)cc1 ?
Found: false (0)

Lookup: Query: recorded result category for COc1cccc(OC)c1C(=O)N[C@@H]1C(=O)N2[C@@H]1SC(C)(C)[C@@H]2C(=O)O in this test
Found: false (0)

Lookup: Please indicate how the test categorized CN1CCN(Cc2ccc(NC(=O)c3ccc(C(C)(C)C)c(C#Cc4cnc5cccnn45)c3)cc2C(F)(F)F)CC1 .
Found: false (0)

Lookup: What is the recorded call for this compound in the test? Cc1oc2nc[nH]c(=O)c2c1C(=O)/C=C/c1ccc(Br)cc1
Found: true (1)

Lookup: Recorded test outcome, item NCCNc1nc2ccccc2c2c(=O)c3cc(F)ccc3sc12
Found: false (0)

Lookup: Kindly provide the recorded test outcome for the following compound: Cc1nc(S(=O)(=O)c2ccccc2)c(S(=O)(=O)Cc2ccc([N+](=O)[O-])cc2)o1
Found: false (0)

Lookup: Hi, sorry to bother you, what did the test record for COc1ccc(NC2=C(Br)C(=O)C(C)=C(C)C2=O)cc1 ?
Found: false (0)

Lookup: What classification did COc1ccc(C(=O)n2nc(-c3ccccc3)nc2N)cc1OC end up with in this test?
Found: false (0)

Lookup: # outcome recorded in this test, key = COc1ccc2c(c1)c(-c1nn3cc(-c4cccs4)nc3s1)cn2C
Found: false (0)

Lookup: Please let me know the test result on file for Cc1ccc(-c2nn(C)c(=O)c3noc(-c4ccc(C)cc4)c23)cc1 .
Found: true (1)

Lookup: What call does the record list for COc1cccc2nc3n(c12)C(c1c(F)cccc1F)SC3 (configuration not stated) ?
Found: false (0)

Lookup: Which outcome was entered for the compound COc1ccc(C(=O)C(C)C)c2ccccc12 in this test?
Found: false (0)

Lookup: Name the outcome recorded for Cc1nc(/N=C(\N)NC(=O)Nc2cccc(Cl)c2)sc1C in the assay.
Found: false (0)

Lookup: Recorded test call requested for Cc1ccc(C(=O)N/N=C/c2cccc([N+](=O)[O-])c2)cn1
Found: false (0)

Lookup: What outcome does the record of this test show for Cc1cccc2c3c(sc12)C(c1ccc(Cl)cc1)C(C#N)=C(/N=C/c1ccc(Cl)cc1)O3 (configuration not stated) ?
Found: true (1)

Lookup: Please state the recorded outcome for this compound: COc1cc(C)c(Cc2cnc(N)nc2N)cc1OC
Found: false (0)

Lookup: // outcome(item) with item = CN(C)CC#Cc1ccc2ncc(C#N)c(Nc3ccc(F)c(Cl)c3)c2c1
Found: false (0)

###

Test system: SF-268 CNS
test_protocol: NCI-60 one-dose screen, 48 h (100 = growth as untreated, 0 = no growth, -100 = all killed)
study_conditions: 10 µM unless noted
The panel holds about 83,000 compounds, 20% with a hit somewhere; the sample as a whole holds those more often.
We use 90% as the dividing line for growth: on or above the line is criterion met, below is criterion not met.

Use these answered entries as a reference point.
>  <molecule>
CC(=O)c1ccc(Nc2nc(C(C)=O)c(C)s2)cc1

>  <experimental_system>
SF-268 CNS

>  <qualitative_label>
criterion met

$$$$
>  <molecule>
CCC12CCC[N+]3([O-])CCC4(C(=Nc5ccccc54)C(O)(C(=O)OC)C1)C23 (stereo not given)

>  <experimental_system>
SF-268 CNS

>  <qualitative_label>
criterion met

$$$$
>  <molecule>
Cc1nc2ccccc2n1-c1ncnc2c1CC(C)c1ccccc1N2C (stereo not given)

>  <experimental_system>
SF-268 CNS

>  <qualitative_label>
criterion met

$$$$
>  <molecule>
Cc1nn(-c2ccccc2)c(-n2ccnc2)c1/C=N/Nc1nc(-c2ccc(Cl)c(Cl)c2)cs1

>  <experimental_system>
SF-268 CNS

>  <qualitative_label>
criterion not met

$$$$
>  <molecule>
COc1cccc2nc3n(c12)C(c1c(F)cccc1F)SC3 (stereo not given)

>  <experimental_system>
SF-268 CNS

>  <qualitative_label>
criterion met

$$$$

Lookup: Determine whether measured growth meets or exceeds 90% for COc1ccc(-c2[nH]ncc2-c2cc3c(c(OC)c2)OCC(=O)N3)cc1
Found: criterion not met

Lookup: hey, is growth for this one >= 90%? CCOC(=O)CC1C(COC(=O)NC)OC(n2cnc3c(NC(=O)Nc4ccccc4)ncnc32)C1O[Si](C)(C)C(C)(C)C (stereo not given)
Found: criterion not met

Lookup: Check this molecule for growth at or above 90%: CS(=O)(=O)Nc1cc(-c2ccc3ncnc(Nc4cccc(Cl)c4F)c3c2)cnc1Cl
Found: criterion not met

###

We begin with a simple list: items and their reported growth.
Test system: U251 CNS
test_protocol: NCI-60 one-dose screen, 48 h (100 = growth as untreated, 0 = no growth, -100 = all killed)
study_conditions: 10 µM unless noted
About 83,000 compounds went through this panel and 20% of them were active in at least one assay; those are over-represented in the sample as a whole.
Give just the numeric value; % need not be written.

>  <compound>
COc1cc(C)c(Cc2cnc(N)nc2N)cc1OC

>  <growth, %>
97.7

$$$$

Lookup: State the recorded growth for this entry: CC(C)n1cnc2c(Nc3cccc(Cl)c3)nc(N[C@H]3CCCC[C@@H]3N)nc21
Found: 57.3

Lookup: Tell me the measured growth of BrCCCc1n(Cc2ccc3ccccc3c2)c2ccccc2[n+]1Cc1ccc2ccccc2c1 , please.
Found: -91.9

Lookup: Value lookup for growth; key = O=C(Nn1c(NCC(=O)N2c3ccccc3Sc3ccccc32)nnc1-c1ccc(O)cc1)c1ccccc1
Found: 103

Lookup: So what's the measured growth for this one? C=CCc1cc(C)ccc1NC(C(=O)NCC(=O)OC)c1ccccc1 (stereo unspecified)
Found: 97.8

Lookup: # lookup: growth of CCOc1cccc(NC2=C(Br)C(=O)C(C)=C(C)C2=O)c1
Found: 97.3

Lookup: GET /values?readout=growth&item= O=C(Nc1ccc(Cl)cc1F)c1cc(Cl)ccc1O
Found: 9.73

Lookup: What value of measured growth is listed for O=C(O)CCC(=O)Nc1nnc(-c2ccccc2)s1 ?
Found: 105
